Cited source: ChEMBL document CHEMBL4699401

Target: Neuropeptide Y receptor type 1 (Homo sapiens)
Sequence (P25929 whole entry): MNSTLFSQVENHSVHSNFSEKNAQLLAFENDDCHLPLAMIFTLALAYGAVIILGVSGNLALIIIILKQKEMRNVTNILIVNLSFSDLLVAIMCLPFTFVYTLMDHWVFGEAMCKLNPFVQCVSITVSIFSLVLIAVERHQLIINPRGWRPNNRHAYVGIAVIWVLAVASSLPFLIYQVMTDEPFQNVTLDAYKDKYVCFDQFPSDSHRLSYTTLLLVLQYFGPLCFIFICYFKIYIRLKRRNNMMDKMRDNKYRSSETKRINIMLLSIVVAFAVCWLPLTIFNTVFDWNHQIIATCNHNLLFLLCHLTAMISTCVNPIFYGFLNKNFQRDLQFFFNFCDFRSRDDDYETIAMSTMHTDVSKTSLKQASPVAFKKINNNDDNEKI
Experiment: Displacement of [3H]UR-MK299 from Y1 receptor in human SK-N-MC cells by radioligand binding assay
Assay Metric: Ki (nM)

// known answers, use as guide
CC(C)C(=O)NCCNC(=O)/N=C(/N)NCCC[C@@H](NC(=O)C(c1ccccc1)c1ccccc1)C(=O)NCc1ccc(O)cc1
0.309
N/C(=N/C(=O)NCCNC(=O)CCl)NCCC[C@@H](NC(=O)C(c1ccccc1)c1ccccc1)C(=O)NCc1ccc(O)cc1
0.0525
C=CC(=O)NCCNC(=O)/N=C(/N)NCCC[C@@H](NC(=O)C(c1ccccc1)c1ccccc1)C(=O)NCc1ccc(O)cc1
0.112
N/C(=N/C(=O)NCCNC(=O)c1ccc(F)cc1)NCCC[C@@H](NC(=O)C(c1ccccc1)c1ccccc1)C(=O)NCc1ccc(O)cc1
295
CCC(=O)NCCCNC(=O)/N=C(/N)NCCC[C@@H](NC(=O)C(c1ccccc1)c1ccccc1)C(=O)NCc1ccc(O)cc1
0.0741

a. N/C(=N/C(=O)NCCNC(=O)C(F)(F)F)NCCC[C@@H](NC(=O)C(c1ccccc1)c1ccccc1)C(=O)NCc1ccc(O)cc1
b. N/C(=N/C(=O)NCCNC(=O)C(c1ccccc1)c1ccccc1)NCCC[C@@H](NC(=O)C(c1ccccc1)c1ccccc1)C(=O)NCc1ccc(O)cc1
Endpoint returns the identifier whose Ki is numerically larger, either a or b . To answer, give the label that identifies your chosen option.
b
(b: 295 nM, a: 0.0708 nM)
